Hi there, I'd appreciate the recorded Ki for every entry that follows.
Molecular target: UniProtKB Q07820
Sequence (Q07820 whole entry): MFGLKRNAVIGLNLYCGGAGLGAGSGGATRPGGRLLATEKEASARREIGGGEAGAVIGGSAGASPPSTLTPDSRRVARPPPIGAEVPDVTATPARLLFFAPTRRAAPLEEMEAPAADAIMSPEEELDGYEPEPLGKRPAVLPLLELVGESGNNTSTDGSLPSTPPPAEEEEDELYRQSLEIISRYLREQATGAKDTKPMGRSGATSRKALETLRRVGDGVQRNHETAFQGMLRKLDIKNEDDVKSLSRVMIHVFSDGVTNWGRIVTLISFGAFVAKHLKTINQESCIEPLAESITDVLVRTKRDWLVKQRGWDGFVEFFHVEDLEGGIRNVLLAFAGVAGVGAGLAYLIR
Give bare numbers, in nM.

Value sought for every listed compound: Ki.
1. COCCCN(CCOC)C[C@H](O)[C@H]1/C(F)=C/C[C@H](C)[C@@H](C)S(=O)(=O)NC(=O)c2ccc3c(c2)N(C[C@@H]2CCN21)C[C@@]1(CCCc2cc(Cl)ccc21)CO3
2. CO[C@@H](CO)[C@@]1(CO)/C(F)=C/C[C@H](C)[C@@H](C)S(=O)(=O)NC(=O)c2ccc3c(c2)N(C[C@@H]2CCN21)C[C@@]1(CCCc2cc(Cl)ccc21)CO3
3. C[C@@H]1[C@@H](C)C/C=C(\F)[C@H]([C@@H](O)CN2CCOCC2)N2CCC[C@H]2CN2C[C@@]3(CCCc4cc(Cl)ccc43)COc3ccc(cc32)C(=O)NS1(=O)=O
4. COCC(COC)OC[C@H](O)[C@H]1/C(F)=C/C[C@H](C)[C@@H](C)S(=O)(=O)NC(=O)c2ccc3c(c2)N(C[C@@H]2CCN21)C[C@@]1(CCCc2cc(Cl)ccc21)CO3

[0.044, 0.357, 0.08, 0.036]

So what's the measured Ki for this one? C[C@@H]1[C@@H](C)C/C=C(\F)[C@H]([C@@H](O)CN(C)CC2CCOCC2)N2CC[C@H]2CN2C[C@@]3(CCCc4cc(Cl)ccc43)COc3ccc(cc32)C(=O)NS1(=O)=O 0.037
